measuredEndpoint: melting point

// query melting point value for entry CC(=O)Nc1nc(CC(=O)Nc2ccc(CCNC[C@H](O)c3ccccc3)cc2)cs1.Cl 242 to 245 °C

// query melting point value for entry Cl.O=C(Cc1cccnc1)Nc1ccc(CCNC[C@H](O)c2ccccc2)cc1 236 to 238 °C

// query melting point value for entry Cl.Cl.O=C(Nc1ccc(CCNC[C@H](O)c2ccccc2)cc1)c1cccnc1 263 to 265 °C

// query melting point value for entry Cl.O=C(Cc1ccccn1)Nc1ccc(CCNCC(O)c2cccc(F)c2)cc1 (centres unmarked) 214 to 215 °C

// query melting point value for entry Cl.Cl.O=C(Cc1cn(Cc2ccccc2Cl)cn1)Nc1ccc(CCNC[C@H](O)c2ccccc2)cc1 140 to 143 °C

// query melting point value for entry Cl.Cl.O=C(Cc1nccn1Cc1ccc(I)cc1)Nc1ccc(CCNC[C@H](O)c2ccccc2)cc1 222 to 225 °C

// query melting point value for entry Cl.Cl.O=C(Cc1ncc[nH]1)Nc1ccc(CCNC[C@H](O)c2ccccc2)cc1 203 to 207 °C

// query melting point value for entry Cl.O=C(Cc1nnnn1Cc1ccc(F)cc1)Nc1ccc(CCNC[C@H](O)c2ccccc2)cc1 225 to 228 °C

----------
Structures can show the parent of a compound that is named as a salt.
This listing pairs compounds with measured melting point.

Use these answered entries as a reference point.
compound | melting point
Cl.Cl.O=C(Cc1nccn1Cc1c(F)ccc(F)c1F)Nc1ccc(CCNC[C@H](O)c2ccccc2)cc1 | 213 to 217 °C
Cl.O=C(CC1=NNN(Cc2ccc(Cl)c(Cl)c2)N1)Nc1ccc(CCNC[C@H](O)c2ccccc2)cc1 | 232 to 235 °C
Cc1cccnc1CC(=O)Nc1ccc(CCNC[C@H](O)c2ccccc2)cc1.Cl | 216 to 217 °C
Cl.Cl.O=C(Cc1nccn1Cc1ccc(F)cc1)Nc1ccc(CCNC[C@H](O)c2ccccc2)cc1 | 230 to 235 °C

Let us examine a further case.
// query melting point value for entry O=C(Cc1ccccn1)Nc1ccc(CCNCC(O)c2ccccc2)cc1 (centres unmarked) (as salt: hydrochloride) 223 to 224 °C

----------
This listing pairs molecules with measured melting point.

molecule | melting point
Cl.Cl.Cl.O=C(Cc1nccn1-c1ccc2ccccc2n1)Nc1ccc(CCNC[C@H](O)c2ccccc2)cc1 | 162 to 165 °C
Cl.O=C(Cc1ccccn1)Nc1ccc(CCNCC(O)c2ccccc2F)cc1 (centres unmarked) | 194 to 196 °C
Cl.O=C(Cn1cccn1)Nc1ccc(CCNC[C@H](O)c2ccccc2)cc1 | 229 to 232 °C
Cl.O=C(Cc1cccc(Cl)n1)Nc1ccc(CCNC[C@H](O)c2ccccc2)cc1 | 248 to 251 °C

Let us examine a further case.
// query melting point value for entry Cl.O=C(Cc1cccc(OCc2ccccc2)n1)Nc1ccc(CCNC[C@H](O)c2ccccc2)cc1 [16] 237 to 238 °C

----------
Structures can show the parent of a compound that is named as a salt.
This listing pairs molecules with measured melting point.

Use these answered entries as a reference point.
molecule | melting point
O=C(Cc1cnccn1)Nc1ccc(CCNCC(O)c2ccccc2)cc1 (stereo not shown) (as salt: hydrochloride) | 236 to 238 °C
Cl.Cl.Nc1nc(CC(=O)Nc2ccc(CCNC[C@H](O)c3ccccc3)cc2)ns1 | 244 to 246 °C
Cl.O=C(CCc1ccccn1)Nc1ccc(CCNC[C@H](O)c2ccccc2)cc1 | 202 to 204 °C

// query melting point value for entry CS(=O)(=O)Nc1nc(CC(=O)Nc2ccc(CCNC[C@H](O)c3ccccc3)cc2)cs1.Cl 252 to 256 °C

// query melting point value for entry Cl.O=C(Cc1nccn1Cc1ccc([N+](=O)[O-])cc1)Nc1ccc(CCNC[C@H](O)c2ccccc2)cc1 237 to 243 °C

// query melting point value for entry Cl.O=C(Cc1n[nH]c(S)n1)Nc1ccc(CCNC[C@H](O)c2ccccc2)cc1 210 to 213 °C

// query melting point value for entry Cl.Cl.O=C(Cc1csc2nccn12)Nc1ccc(CCNC[C@H](O)c2ccccc2)cc1 161 to 162 °C
